Cited source: patent US9096500B2

- tgt: Nav1.7 (or SCN9A) channel (Homo sapiens)
- Construct: expressed in transfected cells
- Sequence (Q15858 whole entry): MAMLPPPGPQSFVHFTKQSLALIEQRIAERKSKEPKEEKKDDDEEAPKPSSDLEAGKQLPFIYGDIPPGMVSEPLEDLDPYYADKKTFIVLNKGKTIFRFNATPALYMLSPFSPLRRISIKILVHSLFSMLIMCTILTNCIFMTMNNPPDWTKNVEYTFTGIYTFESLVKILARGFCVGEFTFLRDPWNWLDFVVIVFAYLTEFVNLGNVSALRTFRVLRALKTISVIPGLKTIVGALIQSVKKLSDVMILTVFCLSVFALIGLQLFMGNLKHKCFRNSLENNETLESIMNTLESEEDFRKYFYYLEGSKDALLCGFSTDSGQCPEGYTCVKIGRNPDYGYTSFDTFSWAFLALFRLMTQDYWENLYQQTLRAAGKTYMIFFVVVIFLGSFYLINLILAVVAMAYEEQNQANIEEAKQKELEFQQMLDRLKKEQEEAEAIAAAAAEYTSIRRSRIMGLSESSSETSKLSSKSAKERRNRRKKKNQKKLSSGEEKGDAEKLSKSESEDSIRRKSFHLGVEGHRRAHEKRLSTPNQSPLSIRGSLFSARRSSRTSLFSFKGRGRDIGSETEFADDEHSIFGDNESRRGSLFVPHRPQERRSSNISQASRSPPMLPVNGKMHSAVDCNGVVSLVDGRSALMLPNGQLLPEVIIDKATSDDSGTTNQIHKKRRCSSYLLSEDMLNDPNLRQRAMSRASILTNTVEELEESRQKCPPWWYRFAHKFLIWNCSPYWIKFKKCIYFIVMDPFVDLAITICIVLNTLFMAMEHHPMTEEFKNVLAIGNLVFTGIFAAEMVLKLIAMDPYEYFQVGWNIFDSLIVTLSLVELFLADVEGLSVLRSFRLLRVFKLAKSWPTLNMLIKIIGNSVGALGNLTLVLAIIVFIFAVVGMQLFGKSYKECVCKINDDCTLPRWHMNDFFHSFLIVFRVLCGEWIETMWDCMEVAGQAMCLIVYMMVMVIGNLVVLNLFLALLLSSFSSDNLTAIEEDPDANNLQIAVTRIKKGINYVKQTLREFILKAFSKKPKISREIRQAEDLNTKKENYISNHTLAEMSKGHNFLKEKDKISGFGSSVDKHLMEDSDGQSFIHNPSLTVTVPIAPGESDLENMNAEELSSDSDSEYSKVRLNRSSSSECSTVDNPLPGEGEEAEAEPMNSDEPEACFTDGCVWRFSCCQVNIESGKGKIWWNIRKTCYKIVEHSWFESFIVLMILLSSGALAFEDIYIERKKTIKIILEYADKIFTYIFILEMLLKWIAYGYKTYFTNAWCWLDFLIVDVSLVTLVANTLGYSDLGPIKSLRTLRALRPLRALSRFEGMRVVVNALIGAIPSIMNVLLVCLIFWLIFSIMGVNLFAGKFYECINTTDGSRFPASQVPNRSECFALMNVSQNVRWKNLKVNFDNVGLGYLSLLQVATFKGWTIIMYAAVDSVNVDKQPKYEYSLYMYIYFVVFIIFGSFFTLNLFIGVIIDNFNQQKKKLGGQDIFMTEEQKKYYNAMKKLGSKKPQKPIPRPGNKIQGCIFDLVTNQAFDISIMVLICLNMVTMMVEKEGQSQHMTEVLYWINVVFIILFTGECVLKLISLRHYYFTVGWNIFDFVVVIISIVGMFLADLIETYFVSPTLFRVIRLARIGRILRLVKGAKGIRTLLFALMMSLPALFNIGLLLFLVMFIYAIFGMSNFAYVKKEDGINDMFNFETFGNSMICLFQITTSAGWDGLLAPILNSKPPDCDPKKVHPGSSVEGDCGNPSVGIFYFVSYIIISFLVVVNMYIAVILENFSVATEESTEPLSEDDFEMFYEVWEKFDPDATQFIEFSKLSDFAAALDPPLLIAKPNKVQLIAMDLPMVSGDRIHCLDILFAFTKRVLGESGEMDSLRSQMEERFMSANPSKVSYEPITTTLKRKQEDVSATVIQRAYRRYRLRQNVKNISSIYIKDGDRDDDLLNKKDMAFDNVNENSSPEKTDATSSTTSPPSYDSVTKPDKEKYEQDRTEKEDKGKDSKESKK
- runDescription: Nav1.7 (hSCN9A) electrophysiology assay, PatchXpress platform
- Assay type: cell-based
- testContext: estimated IC50 from single point electrophysiology data, HEK cells stably expressing hSCN9A, held at V1/2 of inactivation, read-out: Nav1.7 EIC50
Listed next: entries and their corresponding IC50.

{"columns": ["molecularString", "measurementUnit", "valueOperator", "IC50"],
 "data": [
  ["Cc1cc(OCc2cc(F)c(C(=O)NS(C)(=O)=O)cc2F)ccc1Cl", "nM", "=", 130],
  ["COc1ccccc1COc1cc(F)c(C(=O)NS(C)(=O)=O)cc1F", "nM", ">", 1000],
  ["CCc1ccc(OCc2ccc(C(=O)NS(C)(=O)=O)c(C)c2)cc1", "nM", "=", 4200],
  ["CS(=O)(=O)NC(=O)c1cc(F)c(COc2ccc(C#N)c(C(F)(F)F)c2)cc1F", "nM", "=", 1900],
  ["CS(=O)(=O)NC(=O)c1cc(F)c(OCc2cccc(C(F)(F)F)c2)cc1F", "nM", "=", 3100],
  ["CS(=O)(=O)NC(=O)c1cc(F)c(COc2ccccc2OC(F)(F)F)cc1F", "nM", "=", 2200],
  ["COc1cc(C(=O)NS(C)(=O)=O)ccc1COc1ccc(Cl)c(Cl)c1", "nM", "=", 58],
  ["CS(=O)(=O)NC(=O)c1cc(F)c(OCc2ccc(C(F)(F)F)cc2)cc1F", "nM", "=", 4700],
  ["CS(=O)(=O)NC(=O)c1cc(F)c(COc2ccc(Cl)cc2-c2ccno2)cc1F", "nM", ">", 1000]
]}

###

- tgt: Nav1.7 (or SCN9A) channel (Homo sapiens)
- Construct: expressed in transfected cells
- runDescription: Nav1.7 (hSCN9A) electrophysiology assay, PatchXpress platform
- Type: cell-based
- testContext: estimated IC50 from single point electrophysiology data, HEK cells stably expressing hSCN9A, held at V1/2 of inactivation, read-out: Nav1.7 EIC50
pIC50: −log10 of the molar value.
assayMetric: pIC50

{"columns": ["compound", "assayMetric", "valueOperator", "testResult"],
 "data": [
  ["COc1ccc(OCc2cc(F)c(C(=O)NS(C)(=O)=O)cc2F)c(F)c1F [Example 155]", "pIC50", "=", 5.49],
  ["CS(=O)(=O)NC(=O)c1cc(Cl)c(COc2ccc(Cl)c(OC(F)F)c2)cc1F [Example 62]", "pIC50", ">", 5.52],
  ["CS(=O)(=O)NC(=O)c1cc(F)c(COc2ccc(Cl)cc2F)cc1F [Example 133]", "pIC50", "<", 6.00],
  ["CCc1ccc(OCc2ccc(C(=O)NS(C)(=O)=O)c(OC)c2)cc1 [Example 41]", "pIC50", "=", 5.43],
  ["CS(=O)(=O)NC(=O)c1cc(F)c(COc2ccc(OC(F)(F)F)cc2)cc1F [Example 144]", "pIC50", "=", 6.82],
  ["Cc1cc(Cl)c(OCc2cc(F)c(C(=O)NS(C)(=O)=O)cc2F)cc1C#N [Example 131]", "pIC50", "<", 6.00],
  ["CS(=O)(=O)NC(=O)c1ccc(OCc2ccccc2)cc1 [Example 20]", "pIC50", "=", 5.62],
  ["CS(=O)(=O)NC(=O)c1ccc(OCc2cccc(OC(F)(F)F)c2)cc1 [Example 92]", "pIC50", "=", 6.23],
  ["Cc1c(OCc2cc(F)c(C(=O)NS(C)(=O)=O)cc2F)cccc1-n1cccn1 [Example 102]", "pIC50", "<", 5.52]
]}

###

- tgt: Nav1.7 (or SCN9A) channel (Homo sapiens)
- Construct: expressed in transfected cells
- runDescription: Nav1.7 (hSCN9A) electrophysiology assay, PatchXpress platform
- Format: cell-based
- testContext: estimated IC50 from single point electrophysiology data, HEK cells stably expressing hSCN9A, held at V1/2 of inactivation, read-out: Nav1.7 EIC50
pIC50: −log10 of the molar value.
Listed here: items and their measured pIC50.
assayMetric: pIC50

{"columns": ["molecularString", "tgt", "valueOperator", "testResult"],
 "data": [
  ["CS(=O)(=O)NC(=O)c1cc(F)c(COc2ccc(C(F)(F)F)c(Cl)c2)cc1F", "Nav1.7 (or SCN9A) channel (Homo sapiens)", "=", 7.19],
  ["CS(=O)(=O)NC(=O)c1ccc(OCc2ccc(F)cc2Cl)cc1", "Nav1.7 (or SCN9A) channel (Homo sapiens)", "=", 5.54],
  ["CS(=O)(=O)NC(=O)c1cc(Cl)c(OCc2ccccc2-c2ccccc2)cc1F", "Nav1.7 (or SCN9A) channel (Homo sapiens)", "=", 6.19],
  ["COc1ccc(COc2ccc(C(=O)NS(C)(=O)=O)cc2)cc1", "Nav1.7 (or SCN9A) channel (Homo sapiens)", "<", 5.52],
  ["CS(=O)(=O)NC(=O)c1ccc(OCc2ccccc2F)cc1", "Nav1.7 (or SCN9A) channel (Homo sapiens)", "<", 5.52],
  ["CS(=O)(=O)NC(=O)c1cc(F)c(OCc2ccc(OC(F)(F)F)cc2)cc1F", "Nav1.7 (or SCN9A) channel (Homo sapiens)", "<", 6.52],
  ["CS(=O)(=O)NC(=O)c1cc(F)c(COc2ccc(Cl)cc2C#N)cc1F", "Nav1.7 (or SCN9A) channel (Homo sapiens)", "<", 5.52],
  ["CS(=O)(=O)NC(=O)c1cc(F)c(COc2cccc(F)c2F)cc1F", "Nav1.7 (or SCN9A) channel (Homo sapiens)", "<", 6.00],
  ["CS(=O)(=O)NC(=O)c1cc(F)c(COc2ccc(OC(F)(F)F)c(Cl)c2)cc1F", "Nav1.7 (or SCN9A) channel (Homo sapiens)", "=", 7.89],
  ["CS(=O)(=O)NC(=O)c1ccc(OCc2cccc(Br)c2)cc1", "Nav1.7 (or SCN9A) channel (Homo sapiens)", "=", 6.15],
  ["COc1cc(COc2ccc(Cl)c(Cl)c2)ccc1C(=O)NS(C)(=O)=O", "Nav1.7 (or SCN9A) channel (Homo sapiens)", "=", 5.72],
  ["CS(=O)(=O)NC(=O)c1cc(F)c(COc2ccc(C(F)(F)F)cc2)cc1F", "Nav1.7 (or SCN9A) channel (Homo sapiens)", "=", 6.48],
  ["COc1ccccc1OCc1ccc(C(=O)NS(C)(=O)=O)cc1", "Nav1.7 (or SCN9A) channel (Homo sapiens)", "=", 5.07],
  ["CS(=O)(=O)NC(=O)c1cc(F)c(COc2ccc(-c3cocn3)cc2)cc1F", "Nav1.7 (or SCN9A) channel (Homo sapiens)", "=", 5.38],
  ["CS(=O)(=O)NC(=O)c1cc(F)c(COc2ccc(Cl)c(C#N)c2)cc1F", "Nav1.7 (or SCN9A) channel (Homo sapiens)", "=", 5.85],
  ["CS(=O)(=O)NC(=O)c1ccc(OCc2ccc(C#N)cc2)cc1", "Nav1.7 (or SCN9A) channel (Homo sapiens)", "<", 5.52],
  ["CS(=O)(=O)NC(=O)c1ccc(COc2cccc(Cl)c2)cc1", "Nav1.7 (or SCN9A) channel (Homo sapiens)", "=", 6.12],
  ["CS(=O)(=O)NC(=O)c1cc(F)c(COc2cc(F)ccc2F)cc1F", "Nav1.7 (or SCN9A) channel (Homo sapiens)", "=", 6.24]
]}

###

- tgt: Nav1.7 (or SCN9A) channel (Homo sapiens)
- Construct: expressed in transfected cells
- runDescription: Nav1.7 (hSCN9A) electrophysiology assay, PatchXpress platform
- Type: cell-based
- testContext: estimated IC50 from single point electrophysiology data, HEK cells stably expressing hSCN9A, held at V1/2 of inactivation, read-out: Nav1.7 EIC50
Criterion: IC50 strictly less than 0.8 µM. Met: YES. Not met: NO.

{"columns": ["molecularString", "classAssignment"],
 "data": [
  ["CS(=O)(=O)NC(=O)c1cc(F)c(OCc2cccc(F)c2)cc1F", "NO"],
  ["CS(=O)(=O)NC(=O)c1cc(F)c(COc2cc(F)cc(F)c2)cc1F", "NO"],
  ["CS(=O)(=O)NC(=O)c1cc(F)c(COc2ccc(C#N)cc2F)cc1F", "NO"],
  ["CS(=O)(=O)NC(=O)c1cc(F)c(OCc2ccc(Cl)c(C#N)c2)cc1F", "NO"],
  ["CS(=O)(=O)NC(=O)c1cc(Cl)c(COc2ccc(OC(F)F)c(Cl)c2)cc1F", "YES"],
  ["Cc1nc(-c2cccc(OCc3cc(F)c(C(=O)NS(C)(=O)=O)cc3F)c2)no1", "NO"],
  ["CS(=O)(=O)NC(=O)c1cc(F)c(OCc2ccc(Cl)cc2F)cc1F", "NO"],
  ["Cc1ccc(COc2cc(F)c(C(=O)NS(C)(=O)=O)cc2F)cc1C", "NO"],
  ["COc1cc(COc2cc(F)c(C(=O)NS(C)(=O)=O)cc2F)ccc1Cl", "NO"],
  ["COc1cc(Cl)ccc1OCc1cc(F)c(C(=O)NS(C)(=O)=O)cc1F", "NO"],
  ["CS(=O)(=O)NC(=O)c1ccc(COc2ccc(Cl)cc2)cc1", "NO"],
  ["CS(=O)(=O)NC(=O)c1ccc(COc2ccc(C(F)(F)F)cc2-c2ccnnc2)cc1", "YES"],
  ["CS(=O)(=O)NC(=O)c1ccc(OCc2ccccc2-c2ccccc2)cc1", "NO"],
  ["CS(=O)(=O)NC(=O)c1ccc(OCc2ccccc2C(F)(F)F)cc1", "NO"],
  ["COc1cc(C)cc(OCc2cc(F)c(C(=O)NS(C)(=O)=O)cc2F)c1", "YES"],
  ["Cn1nccc1-c1ccc(OCc2ccc(C(=O)NS(C)(=O)=O)cc2)cc1", "NO"],
  ["CS(=O)(=O)NC(=O)c1cc(F)c(OCc2ccc(Cl)c(Cl)c2)cc1F", "YES"],
  ["Cc1ccc(OCc2cc(F)c(C(=O)NS(C)(=O)=O)cc2F)cc1Cl", "YES"],
  ["CCOc1ccccc1COc1cc(F)c(C(=O)NS(C)(=O)=O)cc1F", "NO"],
  ["CS(=O)(=O)NC(=O)c1ccc(OCc2cccc3ccccc23)c(C#N)c1", "NO"],
  ["COc1cccc(COc2ccc(C(=O)NS(C)(=O)=O)cc2)c1", "NO"],
  ["COc1ccc(OCc2cc(F)c(C(=O)NS(C)(=O)=O)cc2F)c2ccccc12", "YES"],
  ["CS(=O)(=O)NC(=O)c1ccc(COc2ccc(C(F)(F)F)c(Cl)c2)cc1", "YES"],
  ["CS(=O)(=O)NC(=O)c1ccc(OCc2cc(F)cc(F)c2)cc1", "NO"],
  ["CS(=O)(=O)NC(=O)c1cc(F)c(COc2cc(F)cc(Cl)c2)cc1F", "YES"],
  ["CS(=O)(=O)NC(=O)c1ccc(OCc2cccc(C(F)(F)F)c2)cc1", "NO"],
  ["COc1cc(COc2ccc(C(=O)NS(C)(=O)=O)cc2)ccc1F", "NO"],
  ["COc1cc(C#N)ccc1OCc1cc(F)c(C(=O)NS(C)(=O)=O)cc1F", "NO"],
  ["COc1ccc(F)c(COc2cc(F)c(C(=O)NS(C)(=O)=O)cc2F)c1", "NO"],
  ["Cn1nccc1-c1cc(Cl)ccc1OCc1ccc(C(=O)NS(C)(=O)=O)cc1", "NO"],
  ["CS(=O)(=O)NC(=O)c1cc(Cl)c(COc2ccc(Cl)c(OC(F)(F)F)c2)cc1F", "YES"],
  ["COc1ccc(COc2cc(F)c(C(=O)NS(C)(=O)=O)cc2F)cc1", "NO"]
]}
